system: IL-1β; assay: IL-1β inhibition assay, LPS-induced PBMCs / CD14+ monocytes (Meso Scale); assay type: cell-based; conditions: 1 h pretreatment, 100 ng/mL LPS 18-24 h

compound	inhibition at 1 µM
Cn1ncc(-c2nc(N[C@H]3CC[C@H](NCC(=O)NCCOCCOCCOCCNC(=O)NCc4cc5c(s4)C(=O)N(C4CCC(=O)NC4=O)C5)CC3)ncc2Cl)c1CC1CC1 (some centres unmarked) [Compound 46]	70 to 90%
CC(C)(C)c1cnc(CSc2cnc(NC(=O)C3CCN(CC(=O)NCCOCCNC(=O)NCc4cccc5c4CN([C@H]4CCCC(=O)NC4=O)C5=O)CC3)s2)o1 [Compound 7]	< 50%
Cn1ncc(-c2nc(N[C@H]3CC[C@H](NCC(=O)NCCOCCOCCOCCNCC(=O)NCc4cc5c(s4)C(=O)N(C4CCC(=O)NC4=O)C5)CC3)ncc2Cl)c1CC1CC1 (some centres unmarked) [Compound 43]	< 50%
Cn1ncc(-c2nc(N[C@H]3CC[C@H](NCC(=O)NCCOCCOCCOCCNc4cccc5c4CN(C4CCC(=O)NC4=O)C5=O)CC3)ncc2Cl)c1CC1CC1 (some centres unmarked) [Compound 55]	> 90%
CC(C)(C)c1cnc(CSc2cnc(NC(=O)C3CCN(CC(=O)NCCCCCCCNC(=O)NCc4cc5c(s4)C(=O)N(C4CCC(=O)NC4=O)C5)CC3)s2)o1 (centres unmarked) [Compound 18]	> 90%
CC(C)(C)c1cnc(CSc2cnc(NC(=O)C3CCN(CCOCCOCCNC(=O)NCc4cc5c(s4)C(=O)N(C4CCC(=O)NC4=O)C5)CC3)s2)o1 (centres unmarked) [Compound 19]	> 90%
Cn1ncc(-c2nc(N[C@H]3CC[C@H](NCCOCCOCCOCCNCc4ccc(OCc5scc6c5CN([C@H]5CCC(=O)NC5=O)C6=O)cc4)CC3)ncc2Cl)c1CC1CC1 [Compound 69]	70 to 90%
CC(C)(C)c1cnc(CSc2cnc(NC(=O)C3CCN(CC(=O)NCCOCCNC(=O)NCc4ccc5c(c4)CN([C@H]4CCCC(=O)NC4=O)C5=O)CC3)s2)o1 [Compound 6]	< 50%
CC(C)(C)c1cnc(CSc2cnc(NC(=O)C3CCN(CC(=O)NCCOCCNC(=O)NCc4scc5c4CN(C4CCC(=O)NC4=O)C5=O)CC3)s2)o1 (centres unmarked) [Compound 2]	> 90%
CC(C)(C)c1cnc(CSc2cnc(NC(=O)C3CCN(CC(=O)NCCOCCOCCOCCNCC(=O)NCc4scc5c4CN(C4CCC(=O)NC4=O)C5=O)CC3)s2)o1 (centres unmarked) [Compound 41]	> 90%
Cn1ncc(-c2nc(N[C@H]3CC[C@H](NCC(=O)NCCOCCOCCOCCNc4cccc5c4CN(C4CCC(=O)NC4=O)C5=O)CC3)ncc2F)c1CC1CC1 (some centres unmarked) [Compound 56]	> 90%

====

Biological target: CDK9 (Homo sapiens)
Construct: Whole cell extracts were prepared using RIPA buffer; endogenous in cells; host or cells: MV-4-11
Assay: CDK9 degradation assay (Western blot, MV-4-11 cells)
Assay type: cell-based
Conditions: MV4-11, 0.1 μM, 6-8 h
Procedure: MV-4-11 cells were grown in RPMI 1640 media supplemented with 10% fetal bovine serum, streptomycin and penicillin. Cells were cultured at approximately 10^6 cells per mL and incubated in DMSO or the indicated compound for 6-8 h. […] For Western blot analysis, whole cell protein extracts were separated on 4-12% SDS-polyacrylamide gels, transferred to nitrocellulose and probed with the indicated primary antibodies. […] The signal was detected using the Odyssey Imaging System (LI-COR). […]
Listed below: Dmax at 0.1 µM values for each entry.

molecule	Dmax at 0.1 µM
Cn1ncc(-c2nc(N[C@H]3CC[C@H](NCC(=O)NCCCCCNC(=O)NCc4cc5c(s4)C(=O)N(C4CCC(=O)NC4=O)C5)CC3)ncc2Cl)c1CC1CC1 (some centres unmarked)	50 to 75%
CC(C)(C)c1cnc(CSc2cnc(NC(=O)C3CCN(CC(=O)NCCOCCOCCOCCNCC(=O)NCc4scc5c4CN(C4CCC(=O)NC4=O)C5=O)CC3)s2)o1 (centres unmarked)	50 to 75%
Cn1ncc(-c2nc(N[C@H]3CC[C@H](NCC(=O)NCCCCNCC(=O)NCc4cc5c(s4)C(=O)N(C4CCC(=O)NC4=O)C5)CC3)ncc2F)c1CC1CC1 (some centres unmarked)	25 to 50%
Cn1ncc(-c2nc(N[C@H]3CC[C@H](NCC(=O)NCCCCCNCC(=O)NCc4cc5c(s4)C(=O)N(C4CCC(=O)NC4=O)C5)CC3)ncc2F)c1CC1CC1 (some centres unmarked)	50 to 75%
Cn1ncc(-c2nc(N[C@H]3CC[C@H](NCC(=O)NCCCCNCC(=O)NCc4scc5c4CN(C4CCC(=O)NC4=O)C5=O)CC3)ncc2F)c1CC1CC1 (some centres unmarked)	25 to 50%

====

target: CDK9 (Homo sapiens, UniProt P50750); construct: Whole cell extracts were prepared using RIPA buffer; endogenous in cells; host or cells: MV-4-11; test: CDK9 degradation assay (Western blot, MV-4-11 cells); type: cell-based; settings: MV4-11, 0.1 μM, 6-8 h
Sequence (P50750 whole entry): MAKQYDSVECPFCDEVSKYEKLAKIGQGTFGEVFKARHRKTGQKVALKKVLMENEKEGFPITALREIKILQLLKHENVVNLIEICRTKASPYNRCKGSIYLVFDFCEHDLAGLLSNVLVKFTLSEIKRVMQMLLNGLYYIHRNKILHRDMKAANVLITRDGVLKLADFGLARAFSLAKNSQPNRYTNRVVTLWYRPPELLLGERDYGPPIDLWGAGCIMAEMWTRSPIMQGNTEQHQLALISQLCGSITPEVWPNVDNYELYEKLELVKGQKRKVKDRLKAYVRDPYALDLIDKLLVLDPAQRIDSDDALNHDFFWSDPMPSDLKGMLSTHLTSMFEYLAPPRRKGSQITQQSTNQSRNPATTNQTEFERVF
Listed below: Dmax at 0.1 µM values for each entry.

molecule	Dmax at 0.1 µM
Cn1ncc(-c2nc(N[C@H]3CC[C@H](NCCCCCCNC(=O)NCc4cc5c(s4)C(=O)N(C4CCC(=O)NC4=O)C5)CC3)ncc2Cl)c1CC1CC1 (stereo partly drawn)	50 to 75%
Cn1ncc(-c2nc(N[C@H]3CC[C@H](NCC(=O)NCCCCNCC(=O)NCc4cc5c(s4)C(=O)N(C4CCC(=O)NC4=O)C5=O)CC3)ncc2Cl)c1CC1CC1 (stereo partly drawn)	< 25%
CC(C)(C)c1cnc(CSc2cnc(NC(=O)C3CCN(CC(=O)NCCOCCOCCNCC(=O)NCc4cc5c(s4)C(=O)N(C4CCC(=O)NC4=O)C5)CC3)s2)o1 (stereo not drawn)	< 25%
CC(C)(C)c1cnc(CSc2cnc(NC(=O)C3CCN(CC(=O)NCCCNC(=O)NCc4cc5c(s4)C(=O)N(C4CCC(=O)NC4=O)C5)CC3)s2)o1 (stereo not drawn)	≥ 75%
Cn1ncc(-c2nc(N[C@H]3CC[C@H](NCC(=O)NCCCCCNCC(=O)NCc4scc5c4CN(C4CCC(=O)NC4=O)C5=O)CC3)ncc2Cl)c1CC1CC1 (stereo partly drawn)	25 to 50%
Cn1ncc(-c2nc(N[C@H]3CC[C@H](NCC(=O)NCCCCCNC(=O)NCc4cc5c(s4)C(=O)N(C4CCC(=O)NC4=O)C5)CC3)ncc2F)c1CC1CC1 (stereo partly drawn)	50 to 75%

====

molecular target: IKAROS (Homo sapiens, UniProt Q13422+Q96SW2); construct: endogenous in cells; host or cells: MV-4-11; experiment: IKAROS degradation assay (Western blot, MV-4-11 cells); assay type: cell-based; settings: MV4-11, 6-8 h
Sequence (Q13422 whole entry): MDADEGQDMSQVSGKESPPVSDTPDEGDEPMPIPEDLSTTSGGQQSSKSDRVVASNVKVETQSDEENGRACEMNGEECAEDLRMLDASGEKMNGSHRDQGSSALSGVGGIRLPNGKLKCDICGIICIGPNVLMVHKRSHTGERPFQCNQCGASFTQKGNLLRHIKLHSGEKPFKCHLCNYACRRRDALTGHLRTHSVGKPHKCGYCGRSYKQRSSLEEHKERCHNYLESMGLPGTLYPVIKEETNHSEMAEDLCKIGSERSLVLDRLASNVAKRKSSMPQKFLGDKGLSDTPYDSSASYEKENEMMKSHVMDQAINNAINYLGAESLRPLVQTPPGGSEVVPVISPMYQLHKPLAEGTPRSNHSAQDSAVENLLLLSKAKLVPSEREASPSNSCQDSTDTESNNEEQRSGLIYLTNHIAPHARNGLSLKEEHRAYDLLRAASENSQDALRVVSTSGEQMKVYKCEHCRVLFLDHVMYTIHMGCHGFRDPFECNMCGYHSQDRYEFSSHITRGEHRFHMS
Sequence (Q96SW2 whole entry): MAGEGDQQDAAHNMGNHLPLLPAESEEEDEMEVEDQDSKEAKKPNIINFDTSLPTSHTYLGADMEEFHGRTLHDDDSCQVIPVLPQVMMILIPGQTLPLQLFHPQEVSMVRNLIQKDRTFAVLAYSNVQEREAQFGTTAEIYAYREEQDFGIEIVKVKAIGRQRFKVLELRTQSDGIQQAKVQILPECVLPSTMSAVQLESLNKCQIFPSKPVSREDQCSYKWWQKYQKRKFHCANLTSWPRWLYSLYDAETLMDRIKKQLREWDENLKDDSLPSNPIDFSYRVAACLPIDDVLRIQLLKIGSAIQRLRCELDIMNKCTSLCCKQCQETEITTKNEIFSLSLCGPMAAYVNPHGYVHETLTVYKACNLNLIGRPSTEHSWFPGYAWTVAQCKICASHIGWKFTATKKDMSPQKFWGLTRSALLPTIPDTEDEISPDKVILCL
Sequence (Q16531 whole entry partner): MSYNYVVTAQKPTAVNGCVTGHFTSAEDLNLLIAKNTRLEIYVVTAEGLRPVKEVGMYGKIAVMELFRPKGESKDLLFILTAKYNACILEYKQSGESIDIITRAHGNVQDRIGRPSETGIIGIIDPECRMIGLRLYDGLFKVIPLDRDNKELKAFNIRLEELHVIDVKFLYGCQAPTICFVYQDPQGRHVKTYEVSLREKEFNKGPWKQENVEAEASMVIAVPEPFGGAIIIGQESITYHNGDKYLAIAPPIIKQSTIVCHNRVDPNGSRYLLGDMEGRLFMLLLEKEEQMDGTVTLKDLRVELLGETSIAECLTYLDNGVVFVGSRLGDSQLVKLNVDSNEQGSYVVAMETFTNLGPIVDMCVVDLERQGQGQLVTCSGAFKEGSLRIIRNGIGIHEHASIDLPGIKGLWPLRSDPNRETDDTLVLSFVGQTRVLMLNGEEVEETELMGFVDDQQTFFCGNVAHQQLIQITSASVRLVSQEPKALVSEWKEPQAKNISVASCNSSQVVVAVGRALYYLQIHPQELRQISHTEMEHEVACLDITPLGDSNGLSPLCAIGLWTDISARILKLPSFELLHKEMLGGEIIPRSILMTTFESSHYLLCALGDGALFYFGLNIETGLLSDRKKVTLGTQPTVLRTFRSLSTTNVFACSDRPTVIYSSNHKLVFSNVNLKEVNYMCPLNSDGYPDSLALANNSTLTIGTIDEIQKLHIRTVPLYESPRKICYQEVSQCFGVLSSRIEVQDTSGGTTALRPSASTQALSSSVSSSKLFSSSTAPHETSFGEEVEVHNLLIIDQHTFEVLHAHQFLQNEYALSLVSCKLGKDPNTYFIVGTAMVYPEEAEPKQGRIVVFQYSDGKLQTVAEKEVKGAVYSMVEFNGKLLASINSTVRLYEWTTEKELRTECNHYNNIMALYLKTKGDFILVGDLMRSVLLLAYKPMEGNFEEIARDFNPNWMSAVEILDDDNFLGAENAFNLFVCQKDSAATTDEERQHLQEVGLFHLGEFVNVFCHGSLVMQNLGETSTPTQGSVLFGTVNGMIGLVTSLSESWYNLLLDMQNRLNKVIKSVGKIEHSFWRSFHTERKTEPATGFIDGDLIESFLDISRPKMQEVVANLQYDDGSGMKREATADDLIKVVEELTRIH
Listed below: Dmax at 1 µM values for each entry.
measured parameter: Dmax at 1 µM

compound	measured parameter	reading
Cn1ncc(-c2nc(N[C@H]3CC[C@H](NCC(=O)NCCOCCOCCOCCNc4cccc5c4CN(C4CCC(=O)NC4=O)C5=O)CC3)ncc2F)c1CC1CC1 (some centres unmarked)	Dmax at 1 µM	50 to 75%
Cn1ncc(-c2nc(N[C@H]3CC[C@H](NCC(=O)NCCNCC(=O)NCc4cc5c(s4)C(=O)N(C4CCC(=O)NC4=O)C5)CC3)ncc2Cl)c1CC1CC1 (some centres unmarked)	Dmax at 1 µM	50 to 75%
Cn1ncc(-c2nc(N[C@H]3CC[C@H](NCCOCCOCCOCCNCc4ccc(OCc5scc6c5CN([C@H]5CCC(=O)NC5=O)C6=O)cc4)CC3)ncc2Cl)c1CC1CC1	Dmax at 1 µM	≥ 75%
Cn1ncc(-c2nc(N[C@H]3CC[C@H](NCCOCCOCCNCc4ccc(OCc5scc6c5CN([C@H]5CCC(=O)NC5=O)C6=O)cc4)CC3)ncc2Cl)c1CC1CC1	Dmax at 1 µM	25 to 50%
Cn1ncc(-c2nc(N[C@H]3CC[C@H](NCC(=O)NCCOCCOCCOCCNc4cccc5c4C(=O)N(C4CCC(=O)NC4=O)C5=O)CC3)ncc2F)c1CC1CC1 (some centres unmarked)	Dmax at 1 µM	≥ 75%
Cn1ncc(-c2nc(N[C@H]3CC[C@H](NCC(=O)NCCCCCNCC(=O)NCc4cc5c(s4)C(=O)N(C4CCC(=O)NC4=O)C5)CC3)ncc2Cl)c1CC1CC1 (some centres unmarked)	Dmax at 1 µM	50 to 75%
Cn1ncc(-c2nc(N[C@H]3CC[C@H](NCC(=O)NCCCCNCC(=O)NCc4scc5c4CN(C4CCC(=O)NC4=O)C5=O)CC3)ncc2Cl)c1CC1CC1 (some centres unmarked)	Dmax at 1 µM	25 to 50%
Cn1ncc(-c2cc(N[C@H]3CC[C@H](NCC(=O)NCCNCC(=O)NCc4cc5c(s4)C(=O)N(C4CCC(=O)NC4=O)C5)CC3)ncc2F)c1CC1CC1 (some centres unmarked)	Dmax at 1 µM	25 to 50%
Cn1ncc(-c2nc(N[C@H]3CC[C@H](NCC(=O)NCCCCNCC(=O)NCc4cc5c(s4)C(=O)N(C4CCC(=O)NC4=O)C5=O)CC3)ncc2F)c1CC1CC1 (some centres unmarked)	Dmax at 1 µM	25 to 50%
CC(C)(C)c1cnc(CSc2cnc(NC(=O)C3CCN(CC(=O)NCCOCCOCCOCCNc4cccc5c4C(=O)N(C4CCC(=O)NC4=O)C5=O)CC3)s2)o1 (centres unmarked)	Dmax at 1 µM	50 to 75%
CC(C)(C)c1cnc(CSc2cnc(NC(=O)C3CCN(CC(=O)NCCOCCNC(=O)NCc4cccc5c4CN([C@H]4CCCC(=O)NC4=O)C5=O)CC3)s2)o1	Dmax at 1 µM	< 25%
CC(C)(C)c1cnc(CSc2cnc(NC(=O)C3CCN(CC(=O)NCCOCCOCCOCCNCC(=O)NCc4scc5c4CN(C4CCC(=O)NC4=O)C5=O)CC3)s2)o1 (centres unmarked)	Dmax at 1 µM	50 to 75%
Cn1ncc(-c2nc(N[C@H]3CC[C@H](NCC(=O)NCCOCCOCCOCCNc4cccc5c4C(=O)N(C4CCC(=O)NC4=O)C5=O)CC3)ncc2Cl)c1CC1CC1 (some centres unmarked)	Dmax at 1 µM	50 to 75%
CC(C)(C)c1cnc(CSc2cnc(NC(=O)C3CCN(CC(=O)NCCCCCNCC(=O)NCc4scc5c4CN(C4CCC(=O)NC4=O)C5=O)CC3)s2)o1 (centres unmarked)	Dmax at 1 µM	50 to 75%
CC(C)(C)c1cnc(CSc2cnc(NC(=O)C3CCN(CC(=O)NCCCCCNC(=O)NCc4cc5c(s4)C(=O)N(C4CCC(=O)NC4=O)C5=O)CC3)s2)o1 (centres unmarked)	Dmax at 1 µM	25 to 50%
Cc1nc2c(CNC(=O)NCCCCCCCCN[C@H]3CC[C@H](Nc4ncc(Cl)c(-c5cnn(C)c5CC5CC5)n4)CC3)scc2c(=O)n1C1CCC(=O)NC1=O (some centres unmarked)	Dmax at 1 µM	25 to 50%
CC(C)(C)c1cnc(CSc2cnc(NC(=O)C3CCN(CC(=O)NCCOCCNC(=O)NCc4ccc5c(c4)CN([C@H]4CCCC(=O)NC4=O)C5=O)CC3)s2)o1	Dmax at 1 µM	25 to 50%
CC(C)(C)c1cnc(CSc2cnc(NC(=O)C3CCN(CC(=O)NCCOCCOCCNCC(=O)NCc4cc5c(s4)C(=O)N(C4CCC(=O)NC4=O)C5)CC3)s2)o1 (centres unmarked)	Dmax at 1 µM	50 to 75%
CC(C)(C)c1cnc(CSc2cnc(NC(=O)C3CCN(CC(=O)NCCOCCNC(=O)NCc4scc5c4CN(C4CCC(=O)NC4=O)C5=O)CC3)s2)o1 (centres unmarked)	Dmax at 1 µM	25 to 50%
CC(C)(C)c1cnc(CSc2cnc(NC(=O)C3CCN(CCOCCOCCOCCOCCNCC(=O)NCc4scc5c4CN(C4CCC(=O)NC4=O)C5=O)CC3)s2)o1 (centres unmarked)	Dmax at 1 µM	< 25%
CC(C)(C)c1cnc(CSc2cnc(NC(=O)C3CCN(CC(=O)NCCOCCOCCNCC(=O)NCc4scc5c4CN(C4CCC(=O)NC4=O)C5=O)CC3)s2)o1 (centres unmarked)	Dmax at 1 µM	50 to 75%
Cn1ncc(-c2nc(N[C@H]3CC[C@H](NCC(=O)NCCCCNCC(=O)NCc4cc5c(s4)C(=O)N(C4CCC(=O)NC4=O)C5)CC3)ncc2F)c1CC1CC1 (some centres unmarked)	Dmax at 1 µM	50 to 75%
Cn1ncc(-c2nc(N[C@H]3CC[C@H](NCC(=O)NCCCCNCC(=O)NCc4scc5c4CN(C4CCC(=O)NC4=O)C5=O)CC3)ncc2F)c1CC1CC1 (some centres unmarked)	Dmax at 1 µM	25 to 50%
